assay: Toxicity liver stage against HepG2, at 10uM; type: cell-based; design: test concentration 10 uM, cell line HepG2-A16-CD81EGFP; conditions: human, HepG2-A16-CD81EGFP cells; read-out: INHIBITION
Please respond with reported cytotoxicity at 10 µM for every item in the list.
// note: answer is a bare numeric in %

Item O=C(NC1CCCCC1)NC1CCCc2c1cnn2CCO (stereo unspecified) has what recorded cytotoxicity at 10 µM?
8.39

If you can, please state the reported cytotoxicity at 10 µM value of COCC(=O)N1CCN(C)C(=O)C(Cc2ccc(-c3cccs3)cc2)C1 (stereo unspecified) .
1.74

# cytotoxicity at 10 µM lookup, item "CCS(=O)(=O)N1C[C@@H](OCc2ccccn2)[C@@H]2OCCC[C@@H]21"
-2.31

Can you look up the measured cytotoxicity at 10 µM of Fc1ccc(-c2nc(CNC3CCc4ncnn4C3)co2)cc1 (stereo unspecified) for me?
-4.2

// returns reported cytotoxicity at 10 µM for input O=C(CC1CC2(CCN(CC3CC3)CC2)Oc2ccccc21)NC1CC1 (stereo unspecified)
8.5

Reported cytotoxicity at 10 µM, compound CC(C)Oc1cccc(C(=O)C2CCCN(C(=O)c3ncn[nH]3)C2)c1 (stereo unspecified) : ____
-7.53

Entry "Cc1nsc(N2CCCN(C(=O)NCc3cccnc3)CC2)n1" has what cytotoxicity at 10 µM?
-0.555

Could you share which cytotoxicity at 10 µM value was measured for "Cc1cnc2c(S(=O)(=O)NCC3CC3)cccc2c1" ?
-2.87

So what's the measured cytotoxicity at 10 µM for this one? "Cc1cc(CN(C)C(=O)c2cc3c([nH]c2=O)CCCC3=O)no1"
-3.59

Reported cytotoxicity at 10 µM for NC(=O)C1CCCN(S(=O)(=O)c2cnn(-c3ccccc3)c2)C1 (stereo unspecified) : what is it?
-66.6

# input compound: "CCCN1C[C@@H]2CC[C@H]1CN(c1nnc(C(C)C)s1)C2" ; wanted: its cytotoxicity at 10 µM
-11.4

###

Exercise: state measured cytotoxicity at 10 µM for each of the compounds provided.
experiment: Toxicity liver stage against HepG2, at 10uM; assay type: cell-based; parameters: test concentration 10 uM, cell line HepG2-A16-CD81EGFP; settings: human, HepG2-A16-CD81EGFP cells; read-out: INHIBITION
Your answer is read as %, so omit the unit and give the number.

Endpoint output: cytotoxicity at 10 µM of "CC(=O)NC1CCN(c2nc(N(C)C)nc3c2CCCC3)CC1" . Value?
-10.7

Fill in the blank: the reported cytotoxicity at 10 µM of "Cc1cc2nc(C(C)C)cc(N3CCC(Oc4ncccn4)CC3)n2n1" is ____.
13.9

Return reported cytotoxicity at 10 µM; argument: "CC(C)S(=O)(=O)N1CCC(c2cc3n(n2)[C@@H](C(F)(F)F)C[C@@H](C)N3)CC1"
-13.5

Can you share its cytotoxicity at 10 µM? I mean this compound: Cc1cc(C)n(CC2CCCCN2CC(=O)Nc2ccncc2)n1 (stereo unspecified)
8.69

Would you mind telling me what cytotoxicity at 10 µM value was observed for "CCCc1cc(CNC2CCN(c3nc(C)cc(C)n3)CC2)on1" ?
7.51

What value of cytotoxicity at 10 µM has been recorded for this entry: "Cc1cnc(CNc2ncc(C)c(-c3cnn(C)c3)n2)cn1"
7.86

Which cytotoxicity at 10 µM is listed for "CCN(CC)Cc1nc2c(o1)CN(C(=O)c1ccc3ncccc3c1)C2" ?
6.01

I'd like to know its cytotoxicity at 10 µM. The compound in question is "CC(C)Nc1ncnc2c1CCN(C(=O)c1ccccc1F)CC2"
-86.7

What value of cytotoxicity at 10 µM has been reported for the following compound? "COc1cc(C)ccc1S(=O)(=O)N1CC[C@](C)(O)[C@H](C)C1"
7.52

Reported cytotoxicity at 10 µM, compound c1cc(C2CCCN2CC2CC2)n[nH]1 (stereo unspecified) : ____
-1.75

State the recorded cytotoxicity at 10 µM for this entry: "COCCCC1CCN([C@@H]2c3ccccc3C3(CCNCC3)[C@H]2O)CC1"
-4.67

###

assay: Toxicity liver stage against HepG2, at 10uM; format: cell-based; parameters: test concentration 10 uM, cell line HepG2-A16-CD81EGFP; conditions: human, HepG2-A16-CD81EGFP cells; read-out: INHIBITION
PARAMETER MEASURED: cytotoxicity at 10 µM (%)
Report only the number, with the unit % understood.

Look at this molecule and give its reported cytotoxicity at 10 µM. "O=C1CN(Cc2cn(C3CCN(C4CSCCSC4)CC3)nn2)CCN1"
-48.8

What value of measured cytotoxicity at 10 µM is listed for COc1ccccc1C(O)CNC(=O)Nc1ccccn1 (centres undefined) ?
-11.9

cytotoxicity at 10 µM for "CCc1cc(CN(C)C(=O)c2cnn[nH]2)on1" ?
7.48

Please report the recorded cytotoxicity at 10 µM for CN(C)C(C(=O)NCC1(N(C)C)CCOCC1)c1ccccc1F (centres undefined) .
2.2

Which cytotoxicity at 10 µM is listed for COc1ccc(COCC(O)CNC(=O)c2cccc(OC)c2)cc1 (centres undefined) ?
-9.05

Record request: cytotoxicity at 10 µM value, item "COCC(=O)N1CCN2C(=O)OC[C@H]2C1"
1.82

Given the molecule COC(C)c1nc(CN2CCNCC2)cs1 (centres undefined) , what is its reported cytotoxicity at 10 µM?
4.68

Which cytotoxicity at 10 µM is listed for "Cc1n[nH]c(C)c1CCNC(=O)Nc1ccc2c(c1)COC2" ?
-20.4

Fill in the blank: the reported cytotoxicity at 10 µM of "O=C(c1ccno1)N1CC[C@@H]2O[C@H](COCCN3CCCC3)CC[C@@H]21" is ____.
-79.1

What does the data say about its cytotoxicity at 10 µM? Entry: "CSc1nnc(CC2CCN(C(=O)Cc3ccncc3)CC2)n1C"
-46.7

Entry "CN(c1cccnn1)[C@@H]1CC[C@@H]2CN(Cc3cccc(C(=O)O)c3)C[C@@H]21" : reported cytotoxicity at 10 µM = ?
6.17

Returns the measured cytotoxicity at 10 µM for the input molecule. Input: Cc1ccnc(C2(C)CCCN2C(=O)c2cnccn2)n1 (centres undefined)
-34

Requested read-out: cytotoxicity at 10 µM. Entry: OCC1(Cc2cccc(Cl)c2)CCCN(c2ncccn2)C1 (centres undefined)
0.668

// cytotoxicity at 10 µM lookup, key: "COc1ccc(-c2nc(CCNCc3ccncc3)co2)cc1"
-6.11

What cytotoxicity at 10 µM value was documented for this molecule, "Cc1ccc(F)cc1S(=O)(=O)N(C)CC(N)=O" ?
-12.6

Look up cytotoxicity at 10 µM: COc1cc2cc(C(=O)NC(C)C(=O)O)n(C)c2c(OC)c1OC (centres undefined)
-162

What does the record list as cytotoxicity at 10 µM for "O=C(c1ccoc1)N1CCC2(CC1)C(=O)Nc1ccccc12" ?
-13.6

Return reported cytotoxicity at 10 µM; argument: "CN(C(=O)CNCCn1cccn1)C1(C#N)CCCCC1"
2.04

Item under review: Cn1ccnc1CCC1CCCCN1Cc1nccn1C (centres undefined) . Reported cytotoxicity at 10 µM?
8.13

Name the reported cytotoxicity at 10 µM value associated with the molecule "CC(C)(C)S(=O)(=O)CCNC(=O)c1ccc2cc[nH]c2c1"
-2.61

Given CCC1CN(C(=O)c2ccccc2N(C)C)CCN1C(C)C (centres undefined) , state its recorded cytotoxicity at 10 µM.
-0.238

Entry "CN(C)c1ccc(C(=O)N2Cc3cnc(C(C)(C)C)nc3C2)cc1" has what cytotoxicity at 10 µM?
-5.51

Consider the molecule shown here: "CN(C)c1nc2c(c(=O)[nH]1)CCN(C(=O)c1cccc3nccnc13)C2" What is its recorded cytotoxicity at 10 µM?
-10.7

Query: cytotoxicity at 10 µM; subject: "O=C(c1cocn1)N1CCC[C@]2(C[C@@H](Oc3ncccc3F)CO2)C1"
6.21

###

assay: Toxicity liver stage against HepG2, at 10uM; assay type: cell-based; design: test concentration 10 uM, cell line HepG2-A16-CD81EGFP; details: human, HepG2-A16-CD81EGFP cells; read-out: INHIBITION
PARAMETER MEASURED: cytotoxicity at 10 µM (%)
Reply with just the number (in %).

Tell me the measured cytotoxicity at 10 µM of O=C(O)c1ccc(=O)n(CC(c2ccc(Cl)cc2)N2CCCCCC2)c1 (stereo unspecified) , please.
1.12

What value of cytotoxicity at 10 µM has been reported for the following compound? CN(C)C(c1ccccn1)C1CCC(CNC(=O)CC2CCCC2)CC1 (stereo unspecified)
9.43

# input compound: "Cc1cc(C)c2nc(CN3CCC(N4CCOC4=O)CC3)cc(O)c2c1" ; wanted: its cytotoxicity at 10 µM
-0.213

Fill in: cytotoxicity at 10 µM of "CN1CCN(C(=O)c2occc2CN2C(=O)Cc3ccccc32)CC1" is ___
-1.89

Item under review: "Cc1cc(CN(CCO)c2ccccc2)on1" . Reported cytotoxicity at 10 µM?
-14.7

Name the recorded cytotoxicity at 10 µM for O=C(Cc1ccccc1)N1CCC2(CC(=O)N(c3cccc(F)c3)C2)C1 (stereo unspecified) .
-0.557

For the compound "O=C(NCc1cc(N2CCOCC2)ncn1)c1cccc(CO)n1" , what cytotoxicity at 10 µM is on record?
-7.76

Data request, read-out cytotoxicity at 10 µM, for Cc1cccc(N2CCN(C(=O)NC(C)c3nncn3C)CC2)c1 (stereo unspecified)
-6.13

# cytotoxicity at 10 µM lookup, item O=C(c1ccc2c(c1)OCO2)N1CCCSCC1CN1CCCC1 (stereo unspecified)
6.95

May I ask what cytotoxicity at 10 µM has been recorded for "CCN(Cc1ccccc1)C(=O)CCN1C[C@@H](C(=O)O)[C@H](C2CC2)C1" ?
6.94

Find the recorded cytotoxicity at 10 µM belonging to COc1ccc(Cl)cc1-c1cc(NC(=O)C2COCCO2)[nH]n1 (stereo unspecified) and report it.
-29.1
